# target-under-test: Cytochrome P450 2C9 (Homo sapiens)
# Sequence (P11712 whole entry): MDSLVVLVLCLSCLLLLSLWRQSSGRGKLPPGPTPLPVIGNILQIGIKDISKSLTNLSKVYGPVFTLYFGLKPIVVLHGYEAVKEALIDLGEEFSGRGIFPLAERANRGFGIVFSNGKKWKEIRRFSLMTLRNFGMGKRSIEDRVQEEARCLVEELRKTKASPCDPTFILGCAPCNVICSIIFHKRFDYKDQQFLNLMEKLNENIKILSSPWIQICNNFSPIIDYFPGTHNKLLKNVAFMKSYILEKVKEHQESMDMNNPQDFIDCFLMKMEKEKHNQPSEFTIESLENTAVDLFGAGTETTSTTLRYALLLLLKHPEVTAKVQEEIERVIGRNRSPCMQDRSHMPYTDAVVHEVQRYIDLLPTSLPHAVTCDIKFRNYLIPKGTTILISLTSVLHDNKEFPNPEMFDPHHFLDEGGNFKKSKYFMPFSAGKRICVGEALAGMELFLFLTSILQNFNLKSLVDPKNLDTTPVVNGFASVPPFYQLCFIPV
pIC50: −log10 of the molar value.
measured-property: pIC50

Recorded pIC50 of `Cc1nc(-c2ccc(F)cc2F)n(C)c1CC(=O)NCc1ccc(F)cc1Cl` , please.
< 5.00

###

# target-under-test: P2X purinoceptor 7 (Homo sapiens)
# Sequence (Q99572 whole entry): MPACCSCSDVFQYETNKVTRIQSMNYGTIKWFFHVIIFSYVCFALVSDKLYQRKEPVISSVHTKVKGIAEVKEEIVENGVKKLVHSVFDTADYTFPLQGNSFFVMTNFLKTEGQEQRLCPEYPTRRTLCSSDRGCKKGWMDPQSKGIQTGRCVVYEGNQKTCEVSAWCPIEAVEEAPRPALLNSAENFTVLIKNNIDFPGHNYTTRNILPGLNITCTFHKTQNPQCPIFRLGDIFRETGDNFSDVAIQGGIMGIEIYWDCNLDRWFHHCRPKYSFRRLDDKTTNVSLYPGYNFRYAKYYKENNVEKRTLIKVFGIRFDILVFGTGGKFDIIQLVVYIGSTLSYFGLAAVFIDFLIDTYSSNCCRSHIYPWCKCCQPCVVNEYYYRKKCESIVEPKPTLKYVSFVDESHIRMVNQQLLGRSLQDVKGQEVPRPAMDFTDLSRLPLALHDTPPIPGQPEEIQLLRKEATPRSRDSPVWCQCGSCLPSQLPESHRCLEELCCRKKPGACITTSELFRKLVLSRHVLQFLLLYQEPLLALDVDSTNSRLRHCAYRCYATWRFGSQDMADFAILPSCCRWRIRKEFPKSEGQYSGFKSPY
# assay-explanation: Antagonist activity at human recombinant P2X7 receptor expressed in HEK293 cells by ethidium bromide […] assay
Task for the reader: assign each of the following molecules its reported pIC50.
Answers are plain numbers, as −log10 of the molar value.

// solved cases for pIC50 follow
- compound-smiles: "Cc1nc(-c2ccccc2)n(C)c1CC(=O)NCc1ccc(F)cc1Cl"
  result-number: 7.40
- compound-smiles: "Cc1nc(-c2ccccc2)n(C)c1CC(=O)NCc1ccc(F)c(F)c1F"
  result-number: 7.00
- compound-smiles: "Cc1nc(-c2ccc(F)cc2F)n(C)c1CC(=O)NCc1cccc(Cl)c1C"
  result-number: 7.50

Respectfully, I request pIC50 for each entry included below.
1. CCn1c(-c2ccc(F)cc2F)nc(C)c1CC(=O)NCc1c(C)cccc1Cl
2. CCn1c(-c2ccccc2)nc(C)c1CC(=O)NCc1ccc(F)c(F)c1F
3. Cc1nc(-c2ccccc2)n(C)c1CC(=O)NCc1cccc(Cl)c1C

[7.30, 6.80, 7.30]

Below is a list of molecules. For each, state its recorded pIC50.
1. CCn1c(-c2ccc(F)cc2F)nc(C)c1CC(=O)NCc1cccc(Cl)c1C
2. Cc1nc(-c2ccc(F)cc2F)n(C)c1CC(=O)NCc1ccc(F)cc1Cl
3. CCn1c(CC(=O)NCc2ccc(F)cc2Cl)cnc1-c1ccc(F)cc1F

7.40
7.40
6.30

Please state, for each entry, its recorded pIC50.
1. Cc1cccc(Cl)c1CNC(=O)Cc1c(C)nc(-c2ccccc2)n1C
2. Cn1c(CC(=O)NCc2ccc(F)cc2Cl)cnc1-c1ccc(F)cc1F
3. CCn1c(-c2ccccc2)nc(C)c1CC(=O)NCc1c(C)cccc1Cl
4. CCn1c(-c2ccccc2)nc(C)c1CC(=O)NCc1ccc(F)cc1Cl
5. CCn1c(-c2ccccc2)nc(C)c1CC(=O)NCc1cccc(Cl)c1C

1: 7.30; 2: 6.70; 3: 7.30; 4: 7.00; 5: 7.30

For every item below, please supply its pIC50.
1. CCn1c(-c2ccc(F)cc2F)nc(C)c1CC(=O)NCc1ccc(F)cc1Cl
2. Cc1c(Cl)cccc1CNC(=O)Cc1cnc(-c2ccc(F)cc2F)n1C
3. CCn1c(-c2ccc(F)cc2F)nc(C)c1CC(=O)NCc1ccc(F)c(F)c1F

1: 7.00; 2: 7.20; 3: 6.90

Which measured pIC50 value corresponds to `Cc1nc(-c2ccc(F)cc2F)n(C)c1CC(=O)NCc1ccc(F)c(F)c1F` ?
7.20
